Measured values drawn from the RNAGym collection of RNA variant scans (doi:10.1073/pnas.2313332121) for this set.

B1: TPR t1 (parent)
chain: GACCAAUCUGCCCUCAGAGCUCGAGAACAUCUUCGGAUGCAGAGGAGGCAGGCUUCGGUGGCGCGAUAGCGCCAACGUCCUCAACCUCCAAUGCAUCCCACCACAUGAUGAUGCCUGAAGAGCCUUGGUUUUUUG

variants of: B1; assay: polymerase ribozyme fitness, log enrichment relative to wild type (log ratio); higher = more active; in vitro selection for triplet polymerase activity
For each of the variants below, state its polymerase ribozyme fitness (log ratio).
Answer field: number only, no words.

Challenge: Which polymerase ribozyme fitness (log ratio) value is on record for G60A G110A U112C ?
Response given: -1.67

Challenge: Param item: C115U
Response given: -0.935

Challenge: Same for C34U G77A
Response given: -5.22

Challenge: Further, for G48C G69U U130C ?
Response given: -0.222

Challenge: Try this variant next: G42U G57U C82U
Response given: -1.58

Challenge: Next variant up: G63C A90G G93U A118G
Response given: -1.31

Challenge: What about this variant? C11A U21C G52C A121C
Response given: 0.244

Challenge: What about this variant? C20A U125A
Response given: -3.22

Challenge: And what about the variant A5U C62A ?
Response given: -0.777

Challenge: Also C53U C88A G110A U112G ?
Response given: -4.23

Challenge: // same read-out, input: A6U C53G C82A A83G
Response given: -0.829

Challenge: Please answer likewise for C11G A121C
Response given: 1.5

Challenge: What about this variant? G35C G36A G51C C123G
Response given: -6.59

Challenge: Next variant up: A24U G69U
Response given: -3.76

Challenge: C4G C8G U9G U21G U96G A111U ?
Response given: -3.56

Challenge: How about U38G G42A C79U ?
Response given: -2.56

Challenge: Thanks! And A16G U106A ?
Response given: -0.109

Challenge: Consider next the variant C8G C13G U54C in the same way.
Response given: 0.758

Challenge: Next: C62U U78C C94A
Response given: -1.92

Challenge: What about G45A U59A A83C C114G G122C ?
Response given: -4.2

Challenge: Follow-up entry: C22G A46C C62G A74U
Response given: -6.42

Challenge: Would you mind doing C11U C20A U87A A91C A118U as well?
Response given: -2.95

Challenge: Quick one: G69U U125A
Response given: -0.179

Challenge: Entry U109G C114G please
Response given: -4.93

Challenge: For G25C C70G G107A A111U U129G then?
Response given: -7.14

Challenge: What do you get for A18U G128C ?
Response given: -4.63

Challenge: Now give it for C4U C101G too.
Response given: -2.06

Challenge: Follow-up entry: G45C U55A C56A
Response given: -2.11

Challenge: Try the variant C3U C11U C13G U116C
Response given: -4.66

Challenge: Another variant to look at: C70G G127C
Response given: -3.14

Challenge: Can you check A5U G63C C85A C101A A118U next?
Response given: -2.94

Challenge: Try the variant U87G A103C U106C C124G
Response given: -1.08

Challenge: Lookup A50C U125A
Response given: -0.974

Challenge: Okay, and C12G G61A G128U ?
Response given: -1.84

Challenge: And G35U G63U C72U ?
Response given: -7.14

Challenge: And the next one, G48U C70U C114A ?
Response given: -2.21

Challenge: Please answer likewise for A24G G51A U78C
Response given: -6.04

Challenge: Next entry: G44U C56G G61U C89A C94G G122A
Response given: -4.78

Challenge: Also, C8U G44U G52A G63C A84U C85A please.
Response given: -6.83

Challenge: And what about the variant C15A U106A ?
Response given: -1.94

Challenge: Subsequent entry: C34G C82U
Response given: -6.19

Challenge: Subsequent entry: G36U G52C U78G A95G
Response given: -2.15

Challenge: And then C12A G57A G69C U106C , what is it?
Response given: -2.99

Challenge: Try this variant next: G19U A119G G128A
Response given: -3.71

Challenge: G47U C72U U87C C98G U112A , same question.
Response given: -7.3

Challenge: And what about the variant U7G G51C C115U ?
Response given: -5.78
